Here the recorded IC50, reporter cell assay of TGFβ1 activation is given for each entry.
EXPERIMENTAL TARGET: hGARP-proTGFβ1 complex on cells (human, UniProt Q14392 20-662; P01137 30-390)
Sequence (Q14392 20-662 limits assumed, chain 1 of 2): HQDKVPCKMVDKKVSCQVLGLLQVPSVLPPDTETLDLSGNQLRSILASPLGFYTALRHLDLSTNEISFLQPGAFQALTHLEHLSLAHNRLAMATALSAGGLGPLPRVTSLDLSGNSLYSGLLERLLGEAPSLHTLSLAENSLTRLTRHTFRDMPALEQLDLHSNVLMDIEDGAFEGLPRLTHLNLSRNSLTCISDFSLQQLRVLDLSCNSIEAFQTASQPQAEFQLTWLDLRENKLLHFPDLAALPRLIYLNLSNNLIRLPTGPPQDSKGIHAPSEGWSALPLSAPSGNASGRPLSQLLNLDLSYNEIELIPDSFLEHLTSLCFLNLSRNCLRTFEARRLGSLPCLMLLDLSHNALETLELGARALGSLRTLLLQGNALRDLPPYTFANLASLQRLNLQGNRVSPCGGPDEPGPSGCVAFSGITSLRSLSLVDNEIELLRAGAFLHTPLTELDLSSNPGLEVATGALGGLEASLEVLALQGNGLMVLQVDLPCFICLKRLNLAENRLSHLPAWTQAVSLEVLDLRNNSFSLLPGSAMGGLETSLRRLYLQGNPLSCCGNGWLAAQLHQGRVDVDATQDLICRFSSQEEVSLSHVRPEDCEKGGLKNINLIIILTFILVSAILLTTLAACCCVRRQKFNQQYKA
Sequence (P01137 30-390 limits assumed, chain 2 of 2): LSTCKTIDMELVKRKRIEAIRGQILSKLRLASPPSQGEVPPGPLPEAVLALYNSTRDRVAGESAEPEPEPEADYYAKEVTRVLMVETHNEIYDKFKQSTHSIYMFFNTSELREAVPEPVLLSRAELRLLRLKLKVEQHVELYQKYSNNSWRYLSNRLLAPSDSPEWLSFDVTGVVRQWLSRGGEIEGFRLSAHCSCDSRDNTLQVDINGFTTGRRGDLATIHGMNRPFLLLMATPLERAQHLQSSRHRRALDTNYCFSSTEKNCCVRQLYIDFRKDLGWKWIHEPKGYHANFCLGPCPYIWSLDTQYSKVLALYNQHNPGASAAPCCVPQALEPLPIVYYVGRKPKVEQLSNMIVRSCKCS
ASSAY COMMENT: cell-based or functional assay
Quick note: give the figure in nM, leave out the unit.

BINDER: Ab2 (antibody, human IgG4 S228P, kappa, V domains shown) VH: EVQLLESGGGLVQPGGSLRLSCAASGFTFADYAMTWVRQAPGKGLEWVSAISGSGAATYFADSVKGRFTISRDNSKNTLYLQMNSLRAEDTAVYYCARVSSGHWDFDYWGQGTLVTVSS VL: DIQLTQSPSSLSASVGDRVTITCRASQSISSYLNWYQQKPGKAPKLLIYAASNLQSGVPSRFSGSGSGTDFTLTISSLQPEDFATYYCQQTYTVPLTFGGGTKVEIKR
QUANTITATIVE READOUT: 0.776
//
BINDER: Ab29 (antibody, IgG4, V domains shown) VH: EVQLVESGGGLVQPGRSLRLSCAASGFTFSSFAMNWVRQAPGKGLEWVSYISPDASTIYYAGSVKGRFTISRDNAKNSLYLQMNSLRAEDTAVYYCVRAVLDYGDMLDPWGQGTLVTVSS VL: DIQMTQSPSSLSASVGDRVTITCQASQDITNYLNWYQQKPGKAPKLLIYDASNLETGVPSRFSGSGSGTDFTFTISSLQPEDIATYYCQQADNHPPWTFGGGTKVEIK
QUANTITATIVE READOUT: 0.264
//
BINDER: Ab26 (antibody, IgG4, V domains shown) VH: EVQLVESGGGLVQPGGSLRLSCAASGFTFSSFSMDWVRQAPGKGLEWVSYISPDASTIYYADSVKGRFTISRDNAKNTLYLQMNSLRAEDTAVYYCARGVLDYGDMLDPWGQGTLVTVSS VL: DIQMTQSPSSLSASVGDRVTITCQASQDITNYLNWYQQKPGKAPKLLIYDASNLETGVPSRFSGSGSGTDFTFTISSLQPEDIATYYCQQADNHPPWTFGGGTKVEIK
QUANTITATIVE READOUT: 0.262

Request: If you can, please state the reported IC50, reporter cell assay of TGFβ1 activation value of Ab11 (antibody, IgG4, V domains shown) VH: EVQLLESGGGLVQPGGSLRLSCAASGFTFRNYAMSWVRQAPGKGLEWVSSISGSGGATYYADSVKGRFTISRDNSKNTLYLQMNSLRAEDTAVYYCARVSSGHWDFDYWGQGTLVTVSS VL: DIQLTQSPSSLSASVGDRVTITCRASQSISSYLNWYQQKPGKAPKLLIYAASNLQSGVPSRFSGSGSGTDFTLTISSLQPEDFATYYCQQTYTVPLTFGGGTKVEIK .
Response: 0.79

Request: If you can, please state the reported IC50, reporter cell assay of TGFβ1 activation value of Ab1 (antibody, V domains shown) VH: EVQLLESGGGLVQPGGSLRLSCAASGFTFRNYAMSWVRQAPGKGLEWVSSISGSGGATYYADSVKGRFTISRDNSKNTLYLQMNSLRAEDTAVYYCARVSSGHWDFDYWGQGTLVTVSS VL: DIQLTQSPSSLSASVGDRVTITCQASQDISNFLNWYQQKPGKAPKLLIYDASNLETGVPSRFSGSGSGTDFTFTISSLQPEDIATYYCQQVFNPPLTFGGGTKVEIK .
Response: 3.71

// provenance: patent US20220064275A1
